B1: Azoarcus group I ribozyme (parent)
chain: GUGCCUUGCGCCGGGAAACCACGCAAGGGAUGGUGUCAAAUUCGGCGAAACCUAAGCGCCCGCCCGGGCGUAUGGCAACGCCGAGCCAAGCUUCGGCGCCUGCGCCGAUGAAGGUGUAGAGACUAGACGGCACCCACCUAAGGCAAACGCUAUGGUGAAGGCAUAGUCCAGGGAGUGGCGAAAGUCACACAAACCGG

Variants of: B1
Experiment: reverse-splicing fitness (ratio to wild type); higher = more active; in vitro selection; Mg2+ level not given
Property Label: reverse-splicing fitness

In [3]: df
Out[3]:
                                      change            property_label  experimental_value
 0        C82U A120U A145G C150U C169A U176C  reverse-splicing fitness             0.00278
 1                    C82U A111G A145U U176G  reverse-splicing fitness              0.0781
 2        C82A A111C A120G A145U C150G U176A  reverse-splicing fitness              0.0064
 3  C82U A111C A120C A145G C150U C169G U176C  reverse-splicing fitness              0.0151
 4              C82G A111C A120U C150A U176G  reverse-splicing fitness             0.00333
 5             A111C A120U A145G C150U C169U  reverse-splicing fitness               0.065
 6       A111G A120U A145G C150A C169A U176C  reverse-splicing fitness             0.00368
 7              C82G A111G A120C A145G C169U  reverse-splicing fitness               0.015
 8        C82G A111C A120C A145C C169A U176C  reverse-splicing fitness              0.0118
 9        C82U A120G A145G C150A C169A U176G  reverse-splicing fitness             0.00457
10              C82G A120G A145C C150A C169G  reverse-splicing fitness             0.00875
11                    C82G A111G C169U U176G  reverse-splicing fitness             0.00625
12              C82U A145U C150A C169A U176A  reverse-splicing fitness              0.0106
13                   A111G A120G A145C C169U  reverse-splicing fitness               0.219
14                    C82U A120U C150U C169A  reverse-splicing fitness             0.00404
15        C82G A111G A120U A145U C150A C169U  reverse-splicing fitness              0.0024
16  C82U A111C A120U A145C C150U C169U U176G  reverse-splicing fitness             0.00224
17        C82G A111G A120U A145G C150A C169A  reverse-splicing fitness             0.00593
18              C82G A111G A120C C150U C169A  reverse-splicing fitness              0.0102
19        C82U A111G A120C A145G C150G C169U  reverse-splicing fitness             0.00846
20              C82A A111C A145C C150A C169G  reverse-splicing fitness              0.0093
21        C82G A120G A145U C150U C169U U176C  reverse-splicing fitness              0.0181
